Numbers sourced from patent US6805878B2.

- Measurement Notes: Human cadaver skin permeation (flux) study, modified Franz diffusion cells
- Assay type: in vitro ADME
- Assay Context: carrier composition of Example 2, different cadaver skin, FIG. 1
Result Type: flux of a dermal composition (µg/cm²/h)
Give bare numbers, in µg/cm²/h.

Incoming: Need flux of a dermal composition, item CCOC(=O)[C@H](CCc1ccccc1)N[C@@H](C)C(=O)N1CCC[C@H]1C(=O)OCC
Outgoing: 4.8
